Would you kindly list IC50 for each of these compounds?
- TGT: CDK2/cyclin E (Homo sapiens, UniProt P24941)
- METHOD_SUMMARY: Assay of kinase activity (ADP-Glo)
- Type: biochemical
- MEASUREMENT_CONTEXT: kinase inhibitory activity, read-out: CDK2/E1 IC50
Give bare numbers, in nM.

Here is how some compounds turned out for IC50.
compound="CC(C)n1nnc2ccc3cnc(Nc4ccc(C(=O)N5CC6CCC(C5)N6)cc4)nc3c21 [Example I-25]" observed_result=0.2
compound="CN[C@H]1CCN(C(=O)c2ccc(Nc3ncc4ccc5nnn(C(C)C)c5c4n3)cc2)C1 [Example I-6]" observed_result=0.06
compound="CC(C)n1nnc2ccc3cnc(Nc4ccc(C(=O)N5CCCN(C)CC5)cc4)nc3c21 [Example I-34]" observed_result=0.09

Hi! Can you tell me IC50 for each of these compounds?
1. CN(C)[C@H]1CCN(C(=O)c2ccc(Nc3ncc4ccc5nnn(C6CCCC6)c5c4n3)cc2)C1 [Example I-40]
2. C[C@@]1(O)CCC[C@H]1n1nnc2ccc3cnc(Nc4ccc(C(=O)N5CCOCC5)cc4)nc3c21 [Example I-67]
3. CC(C)n1nnc2ccc3cnc(Nc4ccc(C(=O)N5CCN[C@@H](C)C5)cc4)nc3c21 [Example I-20]
4. CC(C)n1nnc2ccc3cnc(Nc4ccc(C(=O)N5CCN(C)CC5)c(F)c4)nc3c21 [Example I-26]
5. CC(C)n1nnc2ccc3cnc(Nc4ccc(C(=O)N5CCNCC5)c(F)c4)nc3c21 [Example I-19]

0.06
1
1
1
1

Hi! Can you tell me IC50 for each of these compounds?
1. CC(C)n1nnc2ccc3cnc(Nc4ccc(C(=O)N5CCC(F)CC5)cc4)nc3c21 [Example I-18]
2. CC(C)n1nnc2ccc3cnc(Nc4ccc(C(=O)N5CCC(N)CC5)c(F)c4)nc3c21 [Example I-16]
3. C[C@@]1(O)CCC[C@H]1n1nnc2ccc3cnc(Nc4ccc(C(=O)N5CCNCC5)cc4)nc3c21 [Example I-65]
4. CC[C@H](Nc1nc(NCc2cnc(C)cc2C)c2ncn(C(C)C)c2n1)[C@@H](C)O [CYC-065 (Fadraciclib), reference compound]

1. 2
2. 4
3. 0.6
4. 3

====

- TGT: CDK6/cyclin D3 (Homo sapiens, UniProt Q00534)
- Sequence (Q00534 whole entry, species assumed): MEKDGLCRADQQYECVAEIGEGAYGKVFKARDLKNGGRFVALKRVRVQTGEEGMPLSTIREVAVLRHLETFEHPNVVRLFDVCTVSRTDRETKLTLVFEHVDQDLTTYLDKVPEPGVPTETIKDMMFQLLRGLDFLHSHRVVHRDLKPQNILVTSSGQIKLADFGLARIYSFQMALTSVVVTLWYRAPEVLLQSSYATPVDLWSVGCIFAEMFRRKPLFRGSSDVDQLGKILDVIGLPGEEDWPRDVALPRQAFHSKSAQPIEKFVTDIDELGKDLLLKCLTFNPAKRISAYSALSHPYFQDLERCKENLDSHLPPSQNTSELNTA
- Sequence (P30281 whole entry partner, species assumed): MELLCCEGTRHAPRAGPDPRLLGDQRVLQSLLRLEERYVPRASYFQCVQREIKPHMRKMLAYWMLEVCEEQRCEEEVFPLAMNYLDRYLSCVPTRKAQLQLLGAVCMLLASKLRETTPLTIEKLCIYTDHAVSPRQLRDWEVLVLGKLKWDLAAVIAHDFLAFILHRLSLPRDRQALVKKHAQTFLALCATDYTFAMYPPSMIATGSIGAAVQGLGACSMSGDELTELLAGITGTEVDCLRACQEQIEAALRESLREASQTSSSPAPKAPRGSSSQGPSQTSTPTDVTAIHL
- METHOD_SUMMARY: Assay of kinase activity (ADP-Glo)
- MEASUREMENT_CONTEXT: kinase inhibitory activity
Recorded IC50 determines the label; the label ranges are LOW = under 10 nM, MID = from 10 nM up to 20 nM, HIGH = 20 nM and over

A selection of reference data follows.
compound=C[C@@H](n1nnc2ccc3cnc(Nc4ccc(C(=O)N5CCN(C)CC5)cc4)nc3c21)C(C)(C)O class_name=LOW
compound="CC[C@H](Nc1nc(NCc2cnc(C)cc2C)c2ncn(C(C)C)c2n1)[C@@H](C)O [CYC-065 (Fadraciclib), reference compound]" class_name=HIGH
compound=CC(C)N1CCN(C(=O)c2ccc(Nc3ncc4ccc5nnn(C(C)C)c5c4n3)cc2)CC1 class_name=HIGH
compound=CC(C)n1nnc2ccc3cnc(Nc4ccc(C(=O)N5CCS(=O)(=O)CC5)cc4)nc3c21 class_name=HIGH
compound=C[C@@H](n1nnc2ccc3cnc(Nc4ccc(C(=O)N5CCCN(C)CC5)cc4)nc3c21)C(C)(C)O class_name=LOW
compound=CN[C@H]1CCN(C(=O)c2ccc(Nc3ncc4ccc5nnn(C6CCCC6)c5c4n3)cc2)C1 class_name=LOW
compound=C[C@@]1(O)CCC[C@H]1n1nnc2ccc3cnc(Nc4ccc(S(=O)(=O)NCCO)cc4)nc3c21 class_name=LOW
compound=CC(C)n1nnc2ccc3cnc(Nc4ccc(C(=O)N5CC[C@@H](O)[C@H](N)C5)cc4)nc3c21 class_name=HIGH

Would you mind sorting O=C(c1ccc(Nc2ncc3ccc4nnn(C5CCCC5)c4c3n2)cc1)N1CCCNCC1 into the appropriate category?
LOW

Would you mind sorting CC(C)n1nnc2ccc3cnc(Nc4ccc(C(=O)N5CCCNCC5)cc4)nc3c21 into the appropriate category?
HIGH

====

- TGT: CDK4/cyclin D1 (Homo sapiens, UniProt P11802)
- Sequence (P11802 whole entry, species assumed): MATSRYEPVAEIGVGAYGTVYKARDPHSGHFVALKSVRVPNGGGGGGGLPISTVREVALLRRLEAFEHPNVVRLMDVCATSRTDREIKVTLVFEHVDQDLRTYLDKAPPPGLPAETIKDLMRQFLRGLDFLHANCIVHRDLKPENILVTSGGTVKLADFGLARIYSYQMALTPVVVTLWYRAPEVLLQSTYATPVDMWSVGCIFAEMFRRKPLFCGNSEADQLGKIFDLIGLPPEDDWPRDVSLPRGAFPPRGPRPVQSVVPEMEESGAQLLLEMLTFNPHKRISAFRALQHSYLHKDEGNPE
- Sequence (P24385 whole entry partner, species assumed): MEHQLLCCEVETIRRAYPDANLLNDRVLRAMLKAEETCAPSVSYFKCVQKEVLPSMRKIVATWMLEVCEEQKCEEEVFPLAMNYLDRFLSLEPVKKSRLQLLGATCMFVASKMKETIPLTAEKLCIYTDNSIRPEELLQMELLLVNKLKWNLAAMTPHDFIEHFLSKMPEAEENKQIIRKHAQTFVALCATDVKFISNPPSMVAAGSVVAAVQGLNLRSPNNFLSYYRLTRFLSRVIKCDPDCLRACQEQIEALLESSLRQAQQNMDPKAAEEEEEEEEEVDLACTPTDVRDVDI
- METHOD_SUMMARY: Assay of kinase activity (ADP-Glo)
- MEASUREMENT_CONTEXT: kinase inhibitory activity
Would you kindly list pIC50 for each of these molecules?
One number for each entry, as −log10 of the molar value.

Here is how some molecules turned out for pIC50.
mol=C[C@@]1(O)CCC[C@H]1n1nnc2ccc3cnc(Nc4ccc(C(=O)N5CCOCC5)cc4)nc3c21 observed_result=8.70
mol=CC(C)n1nnc2ccc3cnc(Nc4ccc(C(=O)N5CCCN(C)CC5)cc4)nc3c21 observed_result=9.15

Next molecule, please.
Given CC(C)N1CCN(C(=O)c2ccc(Nc3ncc4ccc5nnn(C(C)C)c5c4n3)cc2)CC1 , state its recorded pIC50.
8.70

====

- TGT: CDK2/cyclin E (Homo sapiens)
- METHOD_SUMMARY: Assay of kinase activity (ADP-Glo)
- MEASUREMENT_CONTEXT: kinase inhibitory activity, read-out: CDK2/E1 IC50
pIC50: −log10 of the molar value.
Label scheme for pIC50: lower than 9 is 0, 9 and above is 1.

A selection of reference data follows.
mol=CC(C)(O)Cn1nnc2ccc3cnc(Nc4ccc(C(=O)N5CCOCC5)cc4)nc3c21 class_name=0
mol=CC(C)n1nnc2ccc3cnc(Nc4ccc(C(=O)N5CC[C@H](N)C5)cc4)nc3c21 class_name=1
mol=CC(C)n1nnc2ccc3cnc(Nc4ccc(C(=O)N5CCN(C)[C@H](C)C5)cc4)nc3c21 class_name=0

Can CN1CCCN(C(=O)c2ccc(Nc3ncc4ccc5nnn(C6CCCC6)c5c4n3)cc2)CC1 be said to have pIC50 at or above 9?
1

Can CC(C)n1nnc2ccc3cnc(Nc4ccc(C(=O)N5CC[C@H](N(C)C)C5)cc4)nc3c21 be said to have pIC50 at or above 9?
1

Can CC(C)n1nnc2ccc3cnc(Nc4ccc(C(=O)N5CCN(CCCO)CC5)cc4)nc3c21 be said to have pIC50 at or above 9?
0

Can CC(C)n1nnc2ccc3cnc(Nc4ccc(C(=O)N5CC[C@H](F)C5)cc4)nc3c21 be said to have pIC50 at or above 9?
1

Can CN1CCCN(C(=O)c2ccc(Nc3ncc4ccc5nnn([C@@H]6CCC[C@@]6(C)O)c5c4n3)cc2)CC1 be said to have pIC50 at or above 9?
1

====

- TGT: CDK4/cyclin D1 (Homo sapiens, UniProt P11802)
- METHOD_SUMMARY: Assay of kinase activity (ADP-Glo)
- Format: biochemical
- MEASUREMENT_CONTEXT: kinase inhibitory activity
QUANTITY_KIND: pIC50
Answers are plain numbers, as −log10 of the molar value.

compound="C[C@@]1(O)CCC[C@H]1n1nnc2ccc3cnc(Nc4ccc(C(=O)N5CCS(=O)(=O)CC5)cc4)nc3c21 [Example I-68]" observed_result=8.70

Hi! Can you tell me pIC50 for each of these compounds?
1. C[C@@H](n1nnc2ccc3cnc(Nc4ccc(C(=O)N5CCN(C)CC5)cc4)nc3c21)C(C)(C)O [Example I-57]
2. CC(C)n1nnc2c(C(F)F)cc3cnc(Nc4ccc(C(=O)N5CCCNCC5)cc4)nc3c21 [Example I-46]
3. C[C@@]1(O)CCC[C@H]1n1nnc2ccc3cnc(Nc4ccc(C(=O)N5CCNCC5)cc4)nc3c21 [Example I-65]

1. 9.00
2. 8.52
3. 9.22

Hi! Can you tell me pIC50 for each of these compounds?
1. CC(C)N[C@H]1CCN(C(=O)c2ccc(Nc3ncc4ccc5nnn([C@@H]6CCC[C@@]6(C)O)c5c4n3)cc2)C1 [Example I-63]
2. C[C@@]1(O)CCC[C@H]1n1nnc2ccc3cnc(Nc4ccc(C(=O)N5CC[C@H](N)C5)cc4)nc3c21 [Example I-62]

9.22
9.30

Given CC(C)n1nnc2ccc3cnc(Nc4ccc(C(=O)N5CCCNCC5)cc4)nc3c21 [Example I-33] , state its recorded pIC50.
9.00

====

- TGT: CDK9/cyclin T1 (Homo sapiens)
- Sequence (P50750 whole entry, species assumed): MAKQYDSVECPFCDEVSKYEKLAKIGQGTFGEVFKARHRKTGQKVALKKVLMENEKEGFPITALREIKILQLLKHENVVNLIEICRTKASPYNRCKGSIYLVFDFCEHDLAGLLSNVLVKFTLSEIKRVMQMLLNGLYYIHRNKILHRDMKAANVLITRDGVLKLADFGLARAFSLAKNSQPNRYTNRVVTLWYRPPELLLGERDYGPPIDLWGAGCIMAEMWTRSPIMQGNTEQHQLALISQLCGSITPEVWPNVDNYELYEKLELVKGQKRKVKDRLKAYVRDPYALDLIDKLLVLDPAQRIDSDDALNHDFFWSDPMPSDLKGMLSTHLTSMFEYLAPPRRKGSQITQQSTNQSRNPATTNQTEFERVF
- Sequence (O60563 whole entry partner, species assumed): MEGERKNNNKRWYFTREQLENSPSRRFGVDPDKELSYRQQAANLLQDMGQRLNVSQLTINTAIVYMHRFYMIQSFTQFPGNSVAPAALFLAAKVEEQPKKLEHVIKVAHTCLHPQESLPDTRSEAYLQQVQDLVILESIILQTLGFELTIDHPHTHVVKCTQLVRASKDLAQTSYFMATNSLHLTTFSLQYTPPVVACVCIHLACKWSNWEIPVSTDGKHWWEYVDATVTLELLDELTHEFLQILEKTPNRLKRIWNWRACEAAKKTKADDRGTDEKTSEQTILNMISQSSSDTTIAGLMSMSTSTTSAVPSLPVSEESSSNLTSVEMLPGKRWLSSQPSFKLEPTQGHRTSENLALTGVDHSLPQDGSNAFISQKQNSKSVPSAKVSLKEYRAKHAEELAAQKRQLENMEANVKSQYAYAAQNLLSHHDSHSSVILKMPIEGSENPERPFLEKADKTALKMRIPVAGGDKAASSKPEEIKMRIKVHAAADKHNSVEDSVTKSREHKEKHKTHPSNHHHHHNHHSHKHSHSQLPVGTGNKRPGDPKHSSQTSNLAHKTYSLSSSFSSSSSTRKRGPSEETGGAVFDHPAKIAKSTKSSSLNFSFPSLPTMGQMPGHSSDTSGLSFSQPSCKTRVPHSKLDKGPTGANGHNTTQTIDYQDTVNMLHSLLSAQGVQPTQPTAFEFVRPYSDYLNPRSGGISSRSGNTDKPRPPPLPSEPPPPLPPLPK
- METHOD_SUMMARY: Assay of kinase activity (ADP-Glo)
- MEASUREMENT_CONTEXT: kinase inhibitory activity
pIC50: −log10 of the molar value.
Label scheme for pIC50: lower than 8 is 0, 8 and above is 1.

A selection of reference data follows.
molecule="CC(C)n1nnc2ccc3cnc(Nc4ccc(C(=O)N5CCN[C@H](C)C5)cc4)nc3c21 [Example I-21]" class_name=1
molecule="CC(C)n1nnc2ccc3cnc(Nc4ccc(C(=O)N5CCNC(C)(C)C5)cc4)nc3c21 [Example I-22]" class_name=1
molecule="CC(C)n1nnc2ccc3cnc(Nc4ccc(C(=O)N5CC[C@H](N)C5)cc4)nc3c21 [Example I-4]" class_name=1
molecule="CC(C)n1nnc2ccc3cnc(Nc4ccc(C(=O)N5CCN(CCCO)CC5)cc4)nc3c21 [Example I-31]" class_name=0
molecule="CC(C)n1nnc2ccc3cnc(Nc4ccc(C(=O)N5CCS(=O)(=O)CC5)cc4)nc3c21 [Example I-32]" class_name=0
molecule="CC(C)(O)Cn1nnc2ccc3cnc(Nc4ccc(C(=O)N5CCNCC5)cc4)nc3c21 [Example I-52]" class_name=0
molecule="C[C@@]1(O)CCC[C@H]1n1nnc2ccc3cnc(Nc4ccc(C(=O)N5CCNCC5)cc4)nc3c21 [Example I-65]" class_name=1
molecule="CC(C)n1nnc2c(C(F)F)cc3cnc(Nc4ccc(C(=O)N5CCCNCC5)cc4)nc3c21 [Example I-46]" class_name=0

Can C[C@@H](n1nnc2ccc3cnc(Nc4ccc(C(=O)N5CCCNCC5)cc4)nc3c21)C(C)(C)O [Example I-60] be said to have pIC50 at or above 8?
0

Can CC(C)N1CCN(C(=O)c2ccc(Nc3ncc4ccc5nnn(C(C)C)c5c4n3)cc2)CC1 [Example I-30] be said to have pIC50 at or above 8?
0

Can C[C@@]1(O)CCC[C@H]1n1nnc2ccc3cnc(Nc4ccc(C(=O)N5CCOCC5)cc4)nc3c21 [Example I-67] be said to have pIC50 at or above 8?
0
